Assay: Cytotoxicity against human A549 cells assessed as reduction in cell viability incubated for 72 hrs by CCK-8 assay
Type: toxicity, cell-based
observable: IC50 at 72 h (µg/mL)
Write down the numeric answer in µg/mL and omit the unit.

Entry COc1c(OC(C)=O)cc2oc3cc(O)c(CC=C(C)C)c(O)c3c(=O)c2c1CC=C(C)C — recorded IC50 at 72 h = 17.5

----------
Catalogue of MIC values
Test system: Staphylococcus aureus
Assay: Antibacterial activity against methicillin-resistant Staphylococcus aureus 2 assessed as inhibition of bacterial growth incubated for 18 to 24 hrs by broth microdilution assay
Assay type: functional
Conditions: time 18-24 hrs
Write down the numeric answer in µg/mL and omit the unit.

Entry COc1c(OC(C)=O)cc2oc3cc(O)c(CC=C(C)C)c(O)c3c(=O)c2c1CC=C(C)C — recorded MIC = 2

Entry CCN1CCN(c2cc3c(cc2F)c(=O)c(C(=O)O)cn3C2CC2)CC1 — recorded MIC = 32

Entry COc1c(O)cc2oc3cc(O)c(CC=C(C)C)c(OC(C)=O)c3c(=O)c2c1CC=C(C)C — recorded MIC = 4

Entry COc1c(O)cc2oc3cc(O)c(CCC(C)C)c(O)c3c(=O)c2c1CCC(C)C — recorded MIC = 64

----------
System: Staphylococcus aureus
Assay: Antibacterial activity against Staphylococcus aureus ATCC 43300 assessed as inhibition of bacterial growth incubated for 18 to 24 hrs by broth microdilution assay
Assay type: functional
Conditions: time 18-24 hrs
Catalogue of log10 of MIC values
Values below are the log10 of the recorded MIC, with µg/mL as the unit.

smi: COc1c(O)cc2c(c1CC=C(C)C)Cc1c(cc(O)c(CC=C(C)C)c1O)O2
target desc: Staphylococcus aureus
log10 of MIC: 0.60
//
smi: COc1c(O)cc2oc3cc(O)c(CC=C(C)C)c(O)c3c(=O)c2c1CC=C(C)C
target desc: Staphylococcus aureus
log10 of MIC: 0.00
//
smi: COc1c(O)cc2oc3cc(O)c(CCC(C)C)c(O)c3c(=O)c2c1CCC(C)C
target desc: Staphylococcus aureus
log10 of MIC: 1.51
//
smi: COc1c(O)cc2oc3cc4c(c(O)c3c(=O)c2c1CC=C(C)C)CCC(C)(C)O4
target desc: Staphylococcus aureus
log10 of MIC: 1.81
//
smi: COc1c(OC(C)=O)cc2oc3cc(O)c(CC=C(C)C)c(O)c3c(=O)c2c1CC=C(C)C
target desc: Staphylococcus aureus
log10 of MIC: 0.30
//
smi: COc1c(O)cc2oc3cc(O)c(CC=C(C)C)c(OC(=O)C(C)C)c3c(=O)c2c1CC=C(C)C
target desc: Staphylococcus aureus
log10 of MIC: 0.00
//
smi: COc1c(O)cc2oc3cc(O)c(CC=C(C)C)c(OC(C)=O)c3c(=O)c2c1CC=C(C)C
target desc: Staphylococcus aureus
log10 of MIC: 0.00

Okay, next one:
Entry C=CCOc1cc2oc3cc(O)c(CC=C(C)C)c(O)c3c(=O)c2c(CC=C(C)C)c1OC — recorded log10 of MIC = 2.41

----------
System: Staphylococcus aureus
Experiment: Antibacterial activity against Staphylococcus aureus ATCC 29213 assessed as inhibition of bacterial growth incubated for 18 to 24 hrs by broth microdilution assay
Format: functional
Details: time 18-24 hrs
observable: MIC

Below: 4 molecules and their reported MIC.
smi: COc1c(OC(C)=O)cc2oc3cc(O)c(CC=C(C)C)c(O)c3c(=O)c2c1CC=C(C)C
MIC: 4 µg/mL
//
smi: COc1c(OC(C)=O)cc2oc3cc(OC(C)=O)c(CC=C(C)C)c(OC(C)=O)c3c(=O)c2c1CC=C(C)C
MIC: 128 µg/mL
//
smi: COc1c(O)cc2oc3cc(OC(C)=O)c(CC=C(C)C)c(O)c3c(=O)c2c1CC=C(C)C
MIC: > 256 µg/mL
//
smi: C=CCOc1cc2oc3cc(OCC=C)c(OC)c(CC=C(C)C)c3c(=O)c2c(OC(C)=O)c1CC=C(C)C
MIC: > 256 µg/mL

Okay, next one:
Entry COc1c(OC(=O)C(C)C)cc2oc3cc(OC(=O)C(C)C)c(CC=C(C)C)c(OC(=O)C(C)C)c3c(=O)c2c1CC=C(C)C — recorded MIC = > 256 µg/mL
